Recorded values, source patent US11046699B2.

Listed here: items and their measured IC50.
- TARGET_OF_ASSAY: GCN2 (Homo sapiens, UniProt Q9P2K8)
- Sequence (Q9P2K8 whole entry): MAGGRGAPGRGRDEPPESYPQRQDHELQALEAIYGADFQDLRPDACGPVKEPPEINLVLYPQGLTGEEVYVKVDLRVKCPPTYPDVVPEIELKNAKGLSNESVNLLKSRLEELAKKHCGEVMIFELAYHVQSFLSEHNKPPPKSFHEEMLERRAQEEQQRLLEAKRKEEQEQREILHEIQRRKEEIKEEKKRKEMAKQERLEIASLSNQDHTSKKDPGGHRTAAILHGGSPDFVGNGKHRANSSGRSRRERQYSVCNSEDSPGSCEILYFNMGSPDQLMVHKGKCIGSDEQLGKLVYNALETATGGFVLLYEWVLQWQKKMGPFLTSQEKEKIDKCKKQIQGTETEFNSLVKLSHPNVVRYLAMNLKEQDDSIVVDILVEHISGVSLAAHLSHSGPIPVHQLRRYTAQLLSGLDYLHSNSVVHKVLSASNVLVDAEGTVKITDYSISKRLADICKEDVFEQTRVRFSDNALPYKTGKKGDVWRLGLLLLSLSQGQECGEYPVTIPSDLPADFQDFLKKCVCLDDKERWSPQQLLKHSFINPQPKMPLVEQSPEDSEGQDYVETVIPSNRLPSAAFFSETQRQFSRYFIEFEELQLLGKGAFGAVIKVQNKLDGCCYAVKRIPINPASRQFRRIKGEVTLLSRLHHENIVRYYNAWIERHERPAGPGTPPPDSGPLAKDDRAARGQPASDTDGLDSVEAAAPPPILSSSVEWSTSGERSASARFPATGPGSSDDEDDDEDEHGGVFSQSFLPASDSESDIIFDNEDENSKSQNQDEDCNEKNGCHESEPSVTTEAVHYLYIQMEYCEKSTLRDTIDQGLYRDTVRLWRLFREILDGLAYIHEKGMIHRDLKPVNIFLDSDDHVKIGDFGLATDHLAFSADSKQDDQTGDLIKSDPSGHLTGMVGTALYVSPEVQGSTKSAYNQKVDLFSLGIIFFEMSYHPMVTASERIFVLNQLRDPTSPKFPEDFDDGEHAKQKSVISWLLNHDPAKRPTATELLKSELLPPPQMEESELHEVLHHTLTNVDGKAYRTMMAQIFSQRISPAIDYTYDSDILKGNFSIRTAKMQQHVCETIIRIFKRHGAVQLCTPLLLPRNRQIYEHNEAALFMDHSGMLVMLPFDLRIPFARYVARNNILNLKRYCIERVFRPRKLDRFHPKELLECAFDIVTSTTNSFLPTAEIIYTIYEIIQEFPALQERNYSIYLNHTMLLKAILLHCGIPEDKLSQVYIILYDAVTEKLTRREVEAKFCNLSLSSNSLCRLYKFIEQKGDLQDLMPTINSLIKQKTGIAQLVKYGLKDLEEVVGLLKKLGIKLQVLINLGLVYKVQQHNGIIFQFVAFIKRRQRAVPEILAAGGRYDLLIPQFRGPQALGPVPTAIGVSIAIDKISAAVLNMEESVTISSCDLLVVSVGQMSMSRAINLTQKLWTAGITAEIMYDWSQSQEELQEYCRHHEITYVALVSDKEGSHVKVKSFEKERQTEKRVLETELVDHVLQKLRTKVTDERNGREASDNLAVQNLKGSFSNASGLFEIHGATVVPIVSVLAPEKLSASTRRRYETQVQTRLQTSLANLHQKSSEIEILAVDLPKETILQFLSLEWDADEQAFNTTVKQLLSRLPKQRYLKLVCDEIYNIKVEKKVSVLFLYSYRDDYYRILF
- EXPERIMENT: GCN2 enzymatic endpoint assay: phosphorylation of GFP-eIF2α measured by TR-FRET (Lanthascreen)
- Type: biochemical
- MEASUREMENT_PARAMETERS: tested as described in Example 77; compound and/or hydrochloride, dihydrochloride or trifluoroacetic acid salt; read-out: IC 50 Activity
- Experimental: The Enzymatic assay was run as an endpoint assay to quantify the activity of the serine/threonine GCN2 kinase by way of measuring phosphorylation of its natural substrate, eiF2α. The enzymatic reaction was initiated by incubating with 2 μM ATP and 80 nM of GFP labeled eiF2a substrate at room temperature and then stopped after 90 minutes with EDTA. The amount of phosphorylated eIF2α is determined by TR-FRET (Lanthascreen). […]

// below: answered molecules
| MOLECULE | IC50 |
| --- | --- |
| COCCNC(=O)[C@@H]1CC[C@@H](Nc2ncc3c(Br)nn(-c4ccc5cccnc5c4)c3n2)C1 | 200 to 500 nM |
| C=CC(=O)NCCc1cc(-n2nc(Br)c3cnc(N[C@@H]4CC[C@@](C)(C(=O)NC)C4)nc32)cc2cccnc12 | 25 to 200 nM |
| CNC(=O)[C@]1(C)CC[C@@H](Nc2ncc3c(Br)nn(-c4cc(F)c5ncc(C(C)(C)N)cc5c4)c3n2)C1 | 25 to 200 nM |
| CNC(=O)[C@]1(C)CC[C@@H](Nc2ncc3c(Br)nn(-c4cccc(CCS(C)(=O)=O)c4)c3n2)C1 | 25 to 200 nM |

Which measured IC50 value corresponds to O=C([C@@H]1CC[C@@H](Nc2ncc3c(Br)nn(-c4ccc5ncccc5c4)c3n2)C1)N1CC(N2CCS(=O)(=O)CC2)C1 ?
25 to 200 nM

Similarly, CNC(=O)[C@]1(CC(F)F)CC[C@@H](Nc2ncc3c(Br)nn(-c4cc(F)c5ncccc5c4)c3n2)C1 ?
< 25 nM

Cool, now CNC(=O)C1(CC#N)CC[C@@H](Nc2ncc3c(Br)nn(-c4ccc(-c5nnc(C)s5)c(CCC#N)c4)c3n2)C1 (stereo partly shown)
25 to 200 nM

# iterate: CNC(=O)c1cc(Cl)cc(-n2nc(Br)c3cnc(N[C@@H]4CC[C@@](C)(C(=O)NC)C4)nc32)c1
25 to 200 nM

Next up: CNC(=O)[C@]1(C)CC[C@@H](Nc2ncc3c(Br)nn(-c4ccc5c(c4)OCC(=O)N5CC(F)(F)F)c3n2)C1
25 to 200 nM

Then what about the molecule CNCCc1cc(-n2nc(Br)c3cnc(N[C@@H]4CC[C@@](C)(C(=O)NC)C4)nc32)ccc1-c1ncco1 ?
25 to 200 nM

Similarly, CNC(=O)[C@]1(C)CC[C@@H](Nc2ncc3c(Br)nn(-c4ccc(-c5ncco5)c(CNS(C)(=O)=O)c4)c3n2)C1 ?
25 to 200 nM

Then CNC(=O)[C@]1(C)CC[C@@H](Nc2ncc3c(Br)nn(-c4cnc5c(CCN)cccc5c4)c3n2)C1 ?
25 to 200 nM

Field entry: CNC(=O)[C@]1(C)CC[C@@H](Nc2ncc3c(Br)nn(-c4ccc(-c5nnc(C)s5)nc4)c3n2)C1
25 to 200 nM

Next record, please: CNC(=O)[C@]1(C)CC[C@@H](Nc2ncc3c(Br)nn(-c4cc(N)c5ncccc5c4)c3n2)C1
25 to 200 nM

Do the same for COCCNC(=O)[C@@H]1CC[C@@H](Nc2ncc3c(Br)nn(-c4ccc5cnn(C)c5c4)c3n2)C1 please
200 to 500 nM

Continue with CNC(=O)[C@]1(C)CC[C@@H](Nc2ncc3c(Br)nn(-c4cc(CO)cc(C(F)(F)F)c4)c3n2)C1
25 to 200 nM
